# reported inhibition at 1 µM; entries follow
target: dopamine D-2 receptor (Rattus norvegicus, UniProt P61169); construct: from tissue; host or cells: limbic brain tissue (homogenate); test: Dopamine D-2 receptor binding, 3H-spiroperidol, limbic brain tissue; conditions: 1 μM
Sequence (P61169 whole entry): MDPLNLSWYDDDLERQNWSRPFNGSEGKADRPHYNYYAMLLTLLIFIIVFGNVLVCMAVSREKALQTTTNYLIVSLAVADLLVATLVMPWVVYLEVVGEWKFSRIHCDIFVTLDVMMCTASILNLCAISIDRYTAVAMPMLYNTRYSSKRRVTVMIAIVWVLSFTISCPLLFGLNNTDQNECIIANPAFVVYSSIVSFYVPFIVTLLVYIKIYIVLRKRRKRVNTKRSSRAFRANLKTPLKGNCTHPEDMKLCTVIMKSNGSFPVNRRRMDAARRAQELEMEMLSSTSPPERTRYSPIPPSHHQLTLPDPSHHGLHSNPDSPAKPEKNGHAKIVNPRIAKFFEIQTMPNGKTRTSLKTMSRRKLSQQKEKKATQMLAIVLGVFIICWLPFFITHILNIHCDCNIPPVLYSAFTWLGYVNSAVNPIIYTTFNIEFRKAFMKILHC
property-measured: inhibition at 1 µM

[[record]]
sample_smiles = "O=C(Cc1csc(NC(=O)c2ccc(F)cc2)n1)OCCN1CCN(c2ncccn2)CC1"
property_measured = "inhibition at 1 µM"
assay_value = "34%"

[[record]]
sample_smiles = "COc1ccccc1N1CCN(CCCOC(=O)Cc2csc(NC(=O)c3ccc(F)cc3)n2)CC1"
property_measured = "inhibition at 1 µM"
assay_value = "81%"

[[record]]
sample_smiles = "COc1ccccc1N1CCN(CCOC(=O)Cc2csc(NC(=O)c3cc(C(C)(C)C)c(O)c(C(C)(C)C)c3)n2)CC1"
property_measured = "inhibition at 1 µM"
assay_value = "51%"

[[record]]
sample_smiles = "COc1ccccc1N1CCN(CCCOC(=O)Cc2csc(NC(=O)c3cc(C(C)(C)C)c(O)c(C(C)(C)C)c3)n2)CC1"
property_measured = "inhibition at 1 µM"
assay_value = "91%"

